system: TNF-α production from human whole blood; test: Inhibition of TNF-α production from human whole blood (hWBA); assay type: cell-based; conditions: Table A; human whole blood diluted 1:1, LPS stimulation, 3.5 h, TNF-α by ELISA
Overview of reported pIC50 across a group of compounds:
Convention used: pIC50 is expressed as -log10 of the molar concentration.

Please review the entries below; each comes with its answer.
COc1ccc2c(c1)C(=O)N(C[C@@]1(C(=O)Cc3nc(Nc4cn[nH]c4)ccc3O)NC(=O)NC1=O)C2 [Compound 1705]    6.53
COc1c(F)cc2c(c1F)C(=O)N(C[C@@]1(c3cc4ncccc4o3)NC(=O)NC1=O)C2 [Compound 1175]    5.15
COc1ccc2c(c1)C(=O)N(C[C@@]1(c3cc4nc(C(=N)NO)ccc4o3)NC(=O)NC1=O)C2 [Compound 1500]    6.19

# next compound below
Prompt line: Fill in the blank: the reported pIC50 of COc1c(F)cc2c(c1F)C(=O)N(C[C@@]1(C#Cc3ccc(C(N)=O)cc3)NC(=O)NC1=O)C2 [Compound 1180] is ____.
Response line: 5.84
